Data origin, for the record: ChEMBL document CHEMBL6092168

biological target: Dipeptidyl peptidase 1 (Homo sapiens, UniProt P53634); experiment: Inhibition of human recombinant Cathepsin C using Gly-Phe-AFC as substrate preincubated for 3 hrs followed by substrate addition and measured after 1 hr by fluorescence based multifunctional microplate reader analysis
Sequence (P53634 25-134 limits assumed): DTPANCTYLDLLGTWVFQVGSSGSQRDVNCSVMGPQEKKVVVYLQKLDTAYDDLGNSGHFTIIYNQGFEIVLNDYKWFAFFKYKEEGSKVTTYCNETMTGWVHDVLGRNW
Sequence (P53634 231-394 limits assumed): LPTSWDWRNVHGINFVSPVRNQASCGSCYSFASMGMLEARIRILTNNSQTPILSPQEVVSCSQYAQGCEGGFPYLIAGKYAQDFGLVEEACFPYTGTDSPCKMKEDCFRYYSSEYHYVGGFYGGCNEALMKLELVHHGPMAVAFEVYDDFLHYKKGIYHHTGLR
Sequence (P53634 395-463 limits assumed): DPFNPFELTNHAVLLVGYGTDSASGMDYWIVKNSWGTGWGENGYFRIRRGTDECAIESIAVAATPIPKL
pIC50: −log10 of the molar value.
Below, each of the molecules is paired with its reported pIC50 value.

Consider the following illustrative entries.
smilesText: CCc1ccc(NC(=O)c2cccc(-c3ccc(CN4CCOCC4)cc3)c2)cc1
measurement: < 6.00
//
smilesText: COc1ccc(-c2cccc3c2NC(=O)/C3=C\c2ccnc3ccccc23)cc1
measurement: < 6.00
//
smilesText: CC(=O)Nc1ccc(-c2cccc3c2NC(=O)/C3=C\c2ccnc3ccccc23)cc1
measurement: 6.52
//
smilesText: O=C1Nc2c(cccc2-c2ccc(F)cc2)/C1=C/c1ccnc2ccccc12
measurement: < 6.00

Summary for this molecule, `O=C(Nc1ccc(F)cc1)c1cccc(-c2ccc(CN3CCOCC3)cc2)c1` : pIC50 is < 6.00

Summary for this molecule, `O=C(Nc1ccccc1F)c1cccc(-c2ccc(CN3CCOCC3)cc2)c1` : pIC50 is < 6.00

Summary for this molecule, `Cc1ccc(NC(=O)c2cccc(-c3ccc(CN4CCOCC4)cc3)c2)cc1` : pIC50 is < 6.00

Summary for this molecule, `Nc1ccccc1NC(=O)c1cccc(-c2ccc(CN3CCOCC3)cc2)c1` : pIC50 is < 6.00

Summary for this molecule, `CC(C)c1ccc(-c2cccc3c2NC(=O)/C3=C\c2ccnc3ccccc23)cc1` : pIC50 is < 6.00

Summary for this molecule, `O=C1Nc2c(cccc2-c2ccc3cn[nH]c3c2)/C1=C/c1ccnc2ccccc12` : pIC50 is 6.51

* * *

test system: RAW264.7; experiment: Anti-inflammatory activity in mouse RAW264.7 cells assessed as inhibition of LPS-induced TNF-alpha production at 5 uM preincubated for 1 hr followed by LPS addition and measured after 24 hrs by ELISA relative to control; assay type: functional; set-up: scale not given: the % may be the effect or the level left; conditions: time 25 hrs
parameterMeasured: Activity (%)
Express it in %; write the number only.

Consider the following illustrative entries.
smilesText: Nc1c(C(=O)Nc2cncc3ccccc23)cccc1-c1ccc(CN2CCOCC2)cc1
Activity / %: 60.8
//
smilesText: Nc1c(C(=O)Nc2cccc3ccccc23)cccc1-c1ccc(CN2CCOCC2)cc1
Activity / %: 40.1
//
smilesText: Nc1c(C(=O)Nc2ccc3ccccc3c2)cccc1-c1ccc(CN2CCOCC2)cc1
Activity / %: 69.7
//
smilesText: O=C1Nc2c(cccc2-c2ccc3[nH]ncc3c2)/C1=C/c1ccnc2ccccc12
Activity / %: 41.3

Summary for this compound, `O=C(Nc1ccc2ccccc2c1)c1cccc(-c2ccc(CN3CCOCC3)cc2)n1` : Activity is 57.4

* * *

molecular target: Dipeptidyl peptidase 1 (Homo sapiens, UniProt P53634); assay: Inhibition of human recombinant Cathepsin C using Gly-Phe-AFC as substrate preincubated for 3 hrs followed by substrate addition and measured after 1 hr by fluorescence based multifunctional microplate reader analysis
Label scheme, based on IC50: zone 1 (below 0.2 µM), zone 2 (0.2 µM to below 0.3 µM), zone 3 (0.3 µM or more)

Example entries begin here.
smilesText: CC(C)c1ccccc1NC(=O)c1cccc(-c2ccc(CN3CCOCC3)cc2)c1
targetDesc: Dipeptidyl peptidase 1 (Homo sapiens, UniProt P53634)
classLabel: zone 3
//
smilesText: Nc1ccc(-c2cccc3c2NC(=O)/C3=C\c2ccnc3ccccc23)cc1
targetDesc: Dipeptidyl peptidase 1 (Homo sapiens, UniProt P53634)
classLabel: zone 3
//
smilesText: CNC(=O)c1ccc(NC(=O)c2cccc(-c3ccc(CN4CCOCC4)cc3)c2)cc1
targetDesc: Dipeptidyl peptidase 1 (Homo sapiens, UniProt P53634)
classLabel: zone 3
//
smilesText: Nc1n[nH]c2ccc(-c3cccc4c3NC(=O)/C4=C\c3ccnc4ccccc34)cc12
targetDesc: Dipeptidyl peptidase 1 (Homo sapiens, UniProt P53634)
classLabel: zone 3
//
smilesText: CC(=O)Nc1cccc(NC(=O)c2cccc(-c3ccc(CN4CCOCC4)cc3)c2)c1
targetDesc: Dipeptidyl peptidase 1 (Homo sapiens, UniProt P53634)
classLabel: zone 3

Now for a further molecule.
Using the reported IC50, which band applies to `O=C(Nc1cncc2ccccc12)c1cccc(-c2ccc(CN3CCOCC3)cc2)n1` ?
zone 2
